I'd be grateful if you could share measured log10 of IC50 for these entries.
Molecular target: JAK2 (Homo sapiens (Human))
Sequence (O60674 whole entry): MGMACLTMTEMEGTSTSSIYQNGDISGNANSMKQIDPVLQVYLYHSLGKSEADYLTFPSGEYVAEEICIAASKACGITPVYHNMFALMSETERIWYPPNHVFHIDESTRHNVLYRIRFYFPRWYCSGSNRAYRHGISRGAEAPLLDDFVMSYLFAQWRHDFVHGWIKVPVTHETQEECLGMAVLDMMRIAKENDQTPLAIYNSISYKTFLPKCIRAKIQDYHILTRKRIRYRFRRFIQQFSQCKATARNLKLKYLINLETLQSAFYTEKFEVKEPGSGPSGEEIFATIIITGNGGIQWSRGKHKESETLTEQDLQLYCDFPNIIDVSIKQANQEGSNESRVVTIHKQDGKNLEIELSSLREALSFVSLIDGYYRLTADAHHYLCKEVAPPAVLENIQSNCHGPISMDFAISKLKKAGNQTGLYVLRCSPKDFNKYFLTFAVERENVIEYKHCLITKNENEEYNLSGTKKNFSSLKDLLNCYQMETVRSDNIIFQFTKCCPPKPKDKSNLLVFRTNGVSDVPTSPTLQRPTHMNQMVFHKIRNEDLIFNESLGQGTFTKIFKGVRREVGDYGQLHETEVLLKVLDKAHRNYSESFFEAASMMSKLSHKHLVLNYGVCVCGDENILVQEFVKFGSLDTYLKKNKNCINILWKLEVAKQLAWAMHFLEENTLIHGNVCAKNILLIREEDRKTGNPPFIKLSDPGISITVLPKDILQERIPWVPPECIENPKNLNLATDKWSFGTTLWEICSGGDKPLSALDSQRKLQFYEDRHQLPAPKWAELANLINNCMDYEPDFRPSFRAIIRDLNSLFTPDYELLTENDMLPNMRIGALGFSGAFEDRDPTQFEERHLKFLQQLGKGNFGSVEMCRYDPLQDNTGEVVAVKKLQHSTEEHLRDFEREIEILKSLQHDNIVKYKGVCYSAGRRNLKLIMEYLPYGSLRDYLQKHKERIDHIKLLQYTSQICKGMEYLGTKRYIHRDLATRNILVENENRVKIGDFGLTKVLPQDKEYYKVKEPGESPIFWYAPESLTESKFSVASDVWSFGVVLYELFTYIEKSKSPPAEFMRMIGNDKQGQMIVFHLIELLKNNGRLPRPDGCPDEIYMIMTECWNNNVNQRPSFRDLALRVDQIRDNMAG
Experiment: HTRF kinase assay, JAK2
Format: biochemical
Conditions: Table 6
All values: base-10 log of IC50 in nM.

Recorded results for 10 compounds are shown here.
Problem: Consider the compound shown here: Cc1cnc(Nc2ccc(OCCN3CCCC3)cc2)nc1Nc1cccc(NS(=O)(=O)C(C)(C)C)c1 What is its recorded log10 of IC50?
Solution: 0.36

Problem: Fill in: log10 of IC50 of CNCCOc1ccc(Nc2ncc3ccn(-c4cccc(NS(=O)(=O)C(C)(C)C)c4)c3n2)cc1F [drawing 467] is ___
Solution: 1.90

Problem: Item under review: CNC(=O)N1CCN(c2ccc(Nc3ncc4ccn(-c5cccc(NS(=O)(=O)C(C)(C)C)c5)c4n3)cc2)CC1 . Reported log10 of IC50?
Solution: 1.28

Problem: Item CN1CCN(c2ccc(Nc3ncc4ccn(-c5ccc(F)c(NS(=O)(=O)C(C)(C)C)c5)c4n3)cc2F)CC1 has what recorded log10 of IC50?
Solution: 1.79

Problem: Given the compound CNCCNC(=O)Cc1ccc(Nc2ncc3ccn(-c4ccc(F)c(NS(=O)(=O)C(C)(C)C)c4)c3n2)cc1F , what is its reported log10 of IC50?
Solution: 2.40

Problem: What does the record list as log10 of IC50 for CNCCNC(=O)Cc1ccc(Nc2ncc3ccn(-c4cccc(NS(=O)(=O)C(C)(C)C)c4)c3n2)cc1 ?
Solution: 1.70

Problem: I would be grateful if you could share the reported log10 of IC50 for COc1nc(NC2CCNCC2)nc2c1ccn2-c1cccc(NS(=O)(=O)C(C)(C)C)c1 .
Solution: 3.48

Problem: Please report the recorded log10 of IC50 for O=C(NC1CCNCC1)c1ccc(Nc2ncc3ccn(-c4cccc(NS(=O)(=O)C5CC5)c4)c3n2)cc1 .
Solution: 1.60

Problem: Tell me the measured log10 of IC50 of CN1CCN(c2ccc(Nc3ncc4ccn(-c5ccc(C#N)c(NS(=O)(=O)C6CC6)c5)c4n3)cc2)CC1 , please.
Solution: 1.89

Problem: Give its log10 of IC50 value. Item: CN1CCC(NC(=O)c2ccc(Nc3ncc4ccn(-c5ccc(F)c(NS(=O)(=O)C6CC6)c5)c4n3)cc2)CC1
Solution: 2.18

Provide log10 of IC50 values for the following items, in order.
1. CNc1cc(Nc2ncc3ccn(-c4cccc(NS(=O)(=O)C(C)(C)C)c4)c3n2)ccc1N1CCN(C)CC1
2. CN(C)C1CCN(c2ccc(Nc3ncc4scc(-c5cccc(NS(=O)(=O)C(C)(C)C)c5)c4n3)cc2F)CC1
3. O=S(=O)(Nc1cccc(-n2ccc3cnc(Nc4ccc(N5CCNCC5)cc4)nc32)c1)C1CC1 [drawing 307]
4. CC(C)(C)S(=O)(=O)Nc1cc(Nc2nc(NC3CCNCC3)nc3ccsc23)ccc1Cl
5. CNC(=O)C1CCN(c2ccc(Nc3ncc4ccn(-c5ccc(F)c(NS(=O)(=O)C(C)(C)C)c5)c4n3)cc2F)CC1

Solution:
[1.34, 0.60, 0.70, 4.00, 2.09]

Hi team, please reply with log10 of IC50 for each item in this list.
1. Cc1cnc(Nc2ccc(N3CCN(C)CC3)cc2)nc1Nc1cccc(NS(=O)(=O)C(C)(C)C)c1 [drawing 196]
2. CN(C)C1CCN(c2ccc(Nc3ncc4scc(-c5ccc(F)c(NS(=O)(=O)C(C)(C)C)c5)c4n3)cc2F)CC1
3. CC(C)(C)S(=O)(=O)Nc1cccc(-c2csc3cnc(Nc4ccc5c(c4)CC4CNCCN54)nc23)c1 (centres unmarked)

Solution:
1: 1.00; 2: 0.90; 3: 0.70

I have 3 compounds here; please give me log10 of IC50 for each one.
1. CCC1(S(=O)(=O)Nc2cc(-n3ccc4cnc(Nc5ccc(N6CCC(N(C)C)CC6)c(F)c5)nc43)ccc2F)CC1
2. CNCC1CCN(c2ccc(Nc3ncc4c(n3)N(c3cccc(NS(=O)(=O)C(C)(C)C)c3)CC4)cc2F)CC1
3. CN1CCC(NC(=O)c2ccc(Nc3ncc4ccn(-c5ccc(F)c(NS(=O)(=O)C6CC6)c5)c4n3)cc2F)CC1

Solution:
1. 1.38
2. 0.95
3. 1.54

Ref: patent US11279703B2
